Target: His-GST-RBD WT (Influenza A virus A/Brevig …, UniProt Q99AU3 1-85)
Sequence (Q99AU3 1-85): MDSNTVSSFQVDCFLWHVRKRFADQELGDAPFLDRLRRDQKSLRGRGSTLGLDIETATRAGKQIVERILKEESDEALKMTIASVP
Assay: fluorescence polarization; […], pH 8.0, 1 h at room temperature; […]
Details: protein: recombinant; tags: N-term 10xHis-GST; chain copies: 2; label: 5'-FAM (FITC) on both strands; blunt
OUTCOME MEASURE: pKd
// pKd is dimensionless: -log10 of concentration (M)

Give the reported pKd for this binder. FAM-dsRNA 16 bp (dsRNA) RNA 1: CCAUCCUCUACAGGCG RNA 2: CGCCUGUAGAGGAUGG 6.90

Data origin, for the record: paper PMC11997982
